# protocolSummary: Transport experiment across Caco-2 cell monolayer (Papp)
# Format: in vitro ADME, human
# experimentalConditions: human, Caco-2; standard compounds, validation of the monolayer model
measurementName: Papp (×10⁻⁶ cm/s)
The answer is to be given in ×10⁻⁶ cm/s; state only the numeric part.

Task item: Recorded Papp of CC(C)NCC(O)COc1cccc2ccccc12 (stereo not shown) [propranolol, reference compound] , please.
Reply: 14.4

----------
# System: Caco-2 cell monolayer
# protocolSummary: Transport experiment across Caco-2 cell monolayer (Papp)
# Assay type: in vitro ADME, human
# experimentalConditions: in the equimolar mixture of the seven flavonoids, 50 μmol/L, 90 min
measurementName: P ratio Papp AP→BL/Papp BL→AP
Could you keep your reply to the number by itself?

Consider the reported P ratio Papp AP→BL/Papp BL→AP for these compounds:
compound	assayResult
O=c1cc(-c2ccc(O)c(O)c2)oc2c([C@@H]3O[C@H](CO)[C@@H](O)[C@H](O)[C@H]3O[C@@H]3O[C@H](CO)[C@H](O)[C@H](O)[C@H]3O)c(O)cc(O)c12	1.90
O=c1cc(-c2ccc(O)cc2)oc2c([C@@H]3O[C@H](CO)[C@@H](O)[C@H](O)[C@H]3O)c(O)cc(O)c12	1.55
CCC(C)C(=O)O[C@@H]1[C@@H](O)[C@H](O)[C@@H](CO)O[C@H]1c1c(OC)cc(O)c2c(=O)cc(-c3ccc(O)cc3)oc12 (stereo partly drawn)	0.25
COc1cc(O)c2c(=O)cc(-c3ccc(O)cc3)oc2c1[C@@H]1O[C@H](CO)[C@@H](O)[C@H](O)[C@H]1O	1.69
COc1cc(O)c2c(=O)cc(-c3ccc(O)c(O)c3)oc2c1[C@@H]1O[C@H](CO)[C@@H](O)[C@H](O)[C@H]1O	2.66

Attention now shifts to the item below.
Task item: Entry O=c1cc(-c2ccc(O)c(O)c2)oc2c([C@@H]3O[C@H](CO)[C@@H](O)[C@H](O)[C@H]3O)c(O)cc(O)c12 , system Caco-2 cell monolayer: what P ratio Papp AP→BL/Papp BL→AP was measured?
Reply: 1.29

----------
# protocolSummary: Transport experiment across Caco-2 cell monolayer (Papp)
# Assay type: in vitro ADME, human
# experimentalConditions: human, Caco-2, in the equimolar mixture of the seven flavonoids, 50 μmol/L, 90 min
Reported Papp B→A at 90 min, 50 μmol/L values for the following molecules.
The answer is to be given in ×10⁻⁶ cm/s; state only the numeric part.

Task item: Recorded Papp B→A at 90 min, 50 μmol/L of COc1cc(O)c2c(=O)cc(-c3ccc(O)cc3)oc2c1[C@@H]1O[C@H](CO)[C@@H](O)[C@H](O)[C@H]1O , please.
Reply: 1.59

Task item: Consider next the molecule O=c1cc(-c2ccc(O)cc2)oc2c([C@@H]3O[C@H](CO)[C@@H](O)[C@H](O)[C@H]3O[C@@H]3O[C@H](CO)[C@H](O)[C@H](O)[C@H]3O)c(O)cc(O)c12 in the same way.
Reply: 0.81

Task item: Consider next the molecule O=c1cc(-c2ccc(O)c(O)c2)oc2c([C@@H]3O[C@H](CO)[C@@H](O)[C@H](O)[C@H]3O[C@@H]3O[C@H](CO)[C@H](O)[C@H](O)[C@H]3O)c(O)cc(O)c12 in the same way.
Reply: 0.69

Task item: Consider next the molecule O=c1cc(-c2ccc(O)cc2)oc2c([C@@H]3O[C@H](CO)[C@@H](O)[C@H](O)[C@H]3O)c(O)cc(O)c12 in the same way.
Reply: 1.03

Task item: Consider next the molecule O=c1cc(-c2ccc(O)c(O)c2)oc2c([C@@H]3O[C@H](CO)[C@@H](O)[C@H](O)[C@H]3O)c(O)cc(O)c12 in the same way.
Reply: 0.88

Task item: Consider next the molecule COc1cc(O)c2c(=O)cc(-c3ccc(O)c(O)c3)oc2c1[C@@H]1O[C@H](CO)[C@@H](O)[C@H](O)[C@H]1O in the same way.
Reply: 0.54

Task item: Consider next the molecule CCC(C)C(=O)O[C@@H]1[C@@H](O)[C@H](O)[C@@H](CO)O[C@H]1c1c(OC)cc(O)c2c(=O)cc(-c3ccc(O)cc3)oc12 (stereo partly shown) in the same way.
Reply: 13.7
